Measured values drawn from patent US11773063B1 for this set.

Test: Oxalate salt solubility by HPLC
Type: physicochemical
Conditions: pH 6.8 medium, aqueous buffer, thermodynamic from solid; pH 6.8; by HPLC, mother liquors adjusted to the desired pH; read-out: Solubility (mg/ml) of free base
Where a name gives a salt, the structure may show the parent alone.
Measured metric: solubility (mg/mL)
Provide only the numeric value, understood in mg/mL.

(Q) Return solubility for the following compound: COc1ccc2[nH]cc(CCN(C)C)c2c1 [Oxalate salt, 5-MeO-DMT oxalate]
(A) 26.9

====

Test: Polymorphism screen of hydrochloride and benzoate salts: thermal cycling, evaporation, antisolvent addition, cooling (XRPD)
Type: physicochemical
Settings: thermal cycle of lyophilised hydrochloride salt (~40 mg), solvent added; solvent per experiment: -01 1,4-Dioxane, -02 1-Propanol, -03 2-Butanol, -04 2-Ethoxyethanol, -05 2-Methyltetrahydrofuran, -06 2-Propanol, -07 Acetone, -08 Acetonitrile, -09 Anisole, -10 Chlorobenzene, -11 Ethanol, -12 Ethyl acetate, -13 Isopropyl acetate, -14 Methanol, -15 Propyl acetate, -16 Methylethyl ketone, -17 Formamide
Measured metric: Initial Observations

Solved cases below.
In [3]: df
Out[3]:
                                   compound  experimental_result
0  COc1ccc2[nH]cc(CCN(C)C)c2c1.Cl [DJP2202-007-19]            no change
1  COc1ccc2[nH]cc(CCN(C)C)c2c1.Cl [DJP2202-007-13]            no change
2  COc1ccc2[nH]cc(CCN(C)C)c2c1.Cl [DJP2202-007-11]            no change
3  COc1ccc2[nH]cc(CCN(C)C)c2c1.Cl [DJP2202-007-05]            no change
4  COc1ccc2[nH]cc(CCN(C)C)c2c1.Cl [DJP2202-007-03]            no change

(Q) Return Initial Observations for the following compound: COc1ccc2[nH]cc(CCN(C)C)c2c1.Cl [DJP2202-007-06]
(A) no change

(Q) Return Initial Observations for the following compound: COc1ccc2[nH]cc(CCN(C)C)c2c1.Cl [DJP2202-007-10]
(A) no change

(Q) Return Initial Observations for the following compound: COc1ccc2[nH]cc(CCN(C)C)c2c1.Cl [DJP2202-007-25]
(A) dissolved

(Q) Return Initial Observations for the following compound: COc1ccc2[nH]cc(CCN(C)C)c2c1.Cl [DJP2202-007-12]
(A) no change

(Q) Return Initial Observations for the following compound: COc1ccc2[nH]cc(CCN(C)C)c2c1.Cl [DJP2202-007-21]
(A) no change

(Q) Return Initial Observations for the following compound: COc1ccc2[nH]cc(CCN(C)C)c2c1.Cl [DJP2202-007-08]
(A) no change

====

Experiment: Solubility assessment in four different media
Assay type: physicochemical
Conditions: four media: SNF, pH 1.2, pH 4.5 and pH 6.8 media, 37 °C, aqueous buffer, thermodynamic from solid; four different media
Where a name gives a salt, the structure may show the parent alone.
Measured metric: solubility

>>> print(df.to_string())
                                   molecule  experimental_result
0  COc1ccc2[nH]cc(CCN(C)C)c2c1 [Fumarate salt, 5-MeO-DMT fumarate]          ≥ 250 mg/mL

Consider the record given below.
(Q) Return solubility for the following molecule: COc1ccc2[nH]cc(CCN(C)C)c2c1.O=C(O)c1ccccc1 [benzoate salt, 5-MeO-DMT benzoate]
(A) ≥ 100 mg/mL
